# target: Human Factor D (Homo sapiens (Human))
# protocol description: Human Factor D Assay
# Format: biochemical
# test settings: Human Factor D, Table 3; read-out: IC50
test readout: IC50

• CC(=O)c1cn(CCN2C[C@H](F)C[C@H]2C(=O)Nc2cccc(OC(F)(F)F)c2F)c2ccc(-c3cnc(C)nc3)cc12 = > 10000 nM
• CC(=O)c1nn(CC(=O)N2[C@@H]3C[C@@H]3C[C@H]2C(=O)NC/C(F)=C\c2ccccc2)c2ccc(-c3cnc(C)nc3)cc12 = < 1000 nM
• CC(=O)c1nn(CC(=O)N2C[C@H](F)C[C@H]2C(=O)Nc2cccc(Br)n2)c2ccc(-c3cnc(O)nc3)cc12 = < 1000 nM
• CC(=O)c1nn(CC(=O)N2C[C@@](F)(CN(C)C)C[C@H]2C(=O)Nc2cccc(Br)n2)c2ccc(-c3cnc(C)nc3)cc12 = < 1000 nM
• CC(=O)N1CC=C(c2cn(CC(=O)N3C[C@H](F)C[C@H]3C(=O)Nc3cccc(Br)n3)nc2C(N)=O)CC1 = > 10000 nM
• CC(=O)c1nn(CC(=O)N2C[C@H](F)C[C@H]2C(=O)Nc2nc(C(C)(F)F)ccc2C)c2ccc(-c3cnc(C)nc3)cc12 = < 1000 nM
• CC(=O)c1nn(CC(=O)N2C[C@H](F)C[C@H]2C(=O)Nc2cccc(Br)n2)c2cc(C(=O)N(C)C)c(-c3cnc(C)nc3)cc12 = < 1000 nM
• CC(=O)c1nn(CC(=O)N2C[C@H](F)C[C@H]2C(=O)Nc2cccc(C3CC3)n2)c2ccc(-c3cnc(C)nc3)cc12 = < 1000 nM
• CC(=O)c1nn(CC(=O)N2CCC[C@H]2C(=O)Nc2cccc(C)n2)c2ccc(-c3ccc4cccnc4c3)cc12 = < 1000 nM
• CC(=O)c1nn(CC(=O)N2C[C@H](F)C[C@H]2C(=O)Nc2cccc(C(F)(F)F)n2)c2ccc(-c3cnc(C)nc3)cc12 = < 1000 nM
• CC(=O)c1nn(CC(=O)N2[C@@H]3C[C@@H]3C[C@H]2C(=O)Nc2nc(Br)ccc2CO)c2ccc(-c3cnc(C)nc3)cc12 = < 1000 nM
• CC(=O)c1nn(CC(=O)N2C[C@H](F)C[C@H]2C(=O)Nc2ccn(CC(F)(F)F)n2)c2ccc(-c3cnc(N)nc3)cc12 = < 1000 nM
• CC(=O)c1nn(CC(=O)N2[C@H](C(=O)Nc3cccc(C(F)(F)F)n3)C[C@@]3(C)C[C@@H]23)c2ccc(-c3cnc(C)nc3)cc12 = < 1000 nM

###

This listing pairs compounds with measured pIC50.
# target: Human Factor D (Homo sapiens (Human))
# protocol description: Human Factor D Assay
# Type: biochemical
# test settings: Human Factor D assay of Example 8; Table 2; read-out: IC50
pIC50: −log10 of the molar value.
test readout: pIC50

• CC(=O)c1cn(CC(=O)N2C[C@H](F)C[C@H]2C(=O)Nc2cccc(-c3ccncc3Cl)c2F)c2ccc(-c3cnc(C)nc3)cc12 = > 6.00
• CC(=O)c1nn(CC(=O)N2C[C@H](F)C[C@H]2C(=O)Nc2cccc(Br)n2)c2ccc(-c3ccn4nccc4n3)cc12 = > 6.00
• COCCNc1ncc(-c2ccc3c(c2)c(C(C)=O)nn3CC(=O)N2C[C@H](F)C[C@H]2C(=O)Nc2cccc(Br)n2)cn1 = > 6.00

###

# target: Human Factor D (Homo sapiens (Human))
# protocol description: Human Factor D Assay
# Assay type: biochemical
# test settings: Table 3; Human Factor D 80 nM, substrate Z-L-Lys-SBzl; read-out: IC50 (Stars)
pIC50: −log10 of the molar value.
test readout: pIC50

• CC(=O)c1nn(CC(=O)N2[C@H](C(=O)Nc3cccc(Br)n3)C[C@@]3(C)C[C@@H]23)c2ccc(-c3cnc(N)nc3)cc12 = > 6.00
• CCOC(=O)Cc1ncc(-c2ccc3c(c2)c(C(C)=O)nn3CC(=O)N2C[C@H](F)C[C@H]2C(=O)Nc2cccc(Br)n2)cn1 = > 6.00
• CC(=O)c1nn(CC(=O)N2[C@@H]3C[C@@H]3C[C@H]2C(=O)Nc2cncc(Br)n2)c2ccc(-c3cnc(C)nc3)cc12 = > 6.00

###

Here, each record is paired with measured IC50 data.
# target: Human Factor D (Homo sapiens (Human))
# protocol description: Human Factor D Assay
# Format: biochemical
# test settings: Human Factor D assay of Example 8; Table 2; read-out: IC50
test readout: IC50

- Cc1cc2ncc(-c3cc4c(C(N)=O)nn(CC(=O)N5C[C@H](F)C[C@H]5C(=O)Nc5cccc(OC(F)(F)F)c5F)c4cn3)cn2n1 [Compound 283]: < 1 µM
- CC(=O)c1cn(CC(=O)N2[C@@H]3C[C@@H]3C[C@H]2C(=O)Nc2cccc(Br)n2)c2ccc(-c3cnc4cc(C)nn4c3)cc12 [Compound 298]: < 1 µM
- CC(=O)c1nn(CC(=O)N2C[C@H](F)C[C@H]2C(=O)Nc2cccc(Br)n2)c2ccc(-c3cnc4ncccn34)cc12 [Compound 245]: < 1 µM
- CC(=O)c1cn(CC(=O)N2C[C@H](F)C[C@H]2C(=O)Nc2cccc(Br)n2)c2ccc(-c3cnc(N)nc3)cc12 [Compound 219]: < 1 µM
- CC(=O)c1nn(CC(=O)N2C[C@H](F)C[C@H]2C(=O)Nc2cccc(Br)n2)c2ccc(-c3cnc4ccnn4c3)cc12 [Compound 234]: < 1 µM
- CC(=O)c1nn(CC(=O)N2[C@@H]3C[C@@H]3C[C@H]2C(=O)NCc2cccc(Cl)c2F)c2ccc(-c3cnc4ccnn4c3)cc12 [Compound 240]: < 1 µM

###

# target: Human Factor D (Homo sapiens (Human))
# protocol description: Human Factor D Assay
# Format: biochemical
# test settings: Human Factor D assay of Example 8; Table 2; read-out: IC50
test readout: IC50

• CCOc1ncc(-c2ccc3c(c2)c(C(C)=O)cn3CC(=O)N2C[C@H](F)C[C@H]2C(=O)Nc2cccc(-c3ccccc3Cl)c2F)cn1 = < 1000 nM
• CC(=O)c1nn(CC(=O)N2C[C@H](F)C[C@H]2C(=O)Nc2cccc(Br)n2)c2ccc(-c3nc4c(s3)CCCC4)cc12 = > 10000 nM
• COc1cccc(NC(=O)[C@@H]2C[C@@H](F)CN2C(=O)Cn2nc(C(C)=O)c3cc(-c4cnc5cc(C)nn5c4)ccc32)c1F = < 1000 nM
• CC(=O)c1nn(CC(=O)N2C[C@H](F)C[C@H]2C(=O)Nc2cccc(Cl)n2)c2ccc(-c3cnc(C)nc3)cc12 = < 1000 nM
• C=CCCCCCCCCCNc1ncc(-c2ccc3c(c2)c(C(C)=O)nn3CC(=O)N2C[C@H](F)C[C@H]2C(=O)NCc2cc(C=C)cc(Cl)c2F)cn1 = > 10000 nM
• CC(=O)c1cn(CC(=O)N2C[C@H](F)C[C@H]2C(=O)Nc2cccc(OC(F)(F)F)c2F)c2ccc(-c3cnc4cc(C)nn4c3)cc12 = < 1000 nM

###

# target: Human Factor D (Homo sapiens (Human), UniProt P00746)
# Sequence (P00746 26-253): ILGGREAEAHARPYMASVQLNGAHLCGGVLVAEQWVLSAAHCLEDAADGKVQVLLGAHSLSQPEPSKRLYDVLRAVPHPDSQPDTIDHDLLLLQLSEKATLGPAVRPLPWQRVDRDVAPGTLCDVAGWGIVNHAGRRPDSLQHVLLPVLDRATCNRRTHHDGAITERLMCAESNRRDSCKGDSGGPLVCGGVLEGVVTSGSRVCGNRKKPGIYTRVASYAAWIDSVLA
# protocol description: Human Factor D Assay
# Assay type: biochemical
test readout: IC50

• NC(=O)c1nn(CC(=O)N2C[C@H](F)C[C@H]2C(=O)Nc2cccnc2Cl)c2ccc(-c3ccnnc3)cc12 [Compound 185] = 1 to 10 µM
• CC(=O)c1cn(CC(=O)N2C[C@H](F)C[C@H]2C(=O)NC2CCCN(c3cc(C)ccc3F)C2=O)c2ccc(-c3ccnnc3)cc12 (stereo partly shown) [Compound 125] = 1 to 10 µM
• NC(=O)c1nn(CC(=O)N2C[C@H](F)C[C@H]2C(=O)NCc2cccnc2)c2ccc(-c3ccnnc3)cc12 [Compound 39] = 1 to 10 µM
• CC(=O)c1nn(CC(=O)N2C[Si](C)(C)C[C@H]2C(=O)Nc2cccc(Br)n2)c2ccc(-c3cnc(C)nc3)cc12 [Compound 514] = 1 to 10 µM
• CC(=O)c1nn(CC(=O)N2CCC[C@H]2C(=O)Nc2cccc(C)n2)c2ccc(-c3ccc4c(c3)CCC4)cc12 [Compound 572] = 1 to 10 µM
• CC(=O)c1cn(CC(=O)N2C[C@H](F)C[C@H]2C(=O)Nc2cccc(-c3ccccc3Cl)c2Cl)c2ccc(-c3cnc(C)nc3)cc12 [Compound 149] = < 1 µM
• Cc1ncc(-c2ccc3c(c2)c(C(C)O)nn3CC(=O)N2C[C@H](F)C[C@H]2C(=O)Nc2cccc(Br)n2)cn1 (stereo partly shown) [Compound 360] = 1 to 10 µM
• NC(=O)c1nn(CC(=O)N2C[C@H](F)C[C@H]2C(=O)NCc2ccccn2)c2ccc(-c3ccnnc3)cc12 [Compound 139] = 1 to 10 µM
• CC(=O)c1cn(CC(=O)N2C[C@H](F)C[C@H]2C(=O)Nc2ccccc2-c2nc3ccccc3s2)c2ccc(-c3ccnnc3)cc12 [Compound 34] = > 10 µM
• CC(=O)c1cn(CC(=O)N2C[C@H](F)C[C@H]2C(=O)Nc2cc(O)ccn2)c2ccc(-c3ccnnc3)cc12 [Compound 177] = 1 to 10 µM
• CCN1Cc2ccc(NC(=O)[C@@H]3C[C@@H](F)CN3C(=O)Cn3cc(C(C)=O)c4cc(-c5ccnnc5)ccc43)cc2C1=O [Compound 49] = 1 to 10 µM
• Cc1cccc(NC(=O)[C@@H]2[C@H]3CC[C@H](C3)N2C(=O)Cn2cc(C(N)=O)c3cc(-c4n[nH]c5ccsc45)ccc32)n1 [Compound 704] = > 10 µM
• CC(=O)c1cn(CC(=O)N2C[C@H](F)C[C@H]2C(=O)NCc2cccnc2)c2ccc(-c3ccnnc3)cc12 [Compound 59] = 1 to 10 µM
